- protocol: In vivo pharmacokinetic (PK) study in Beagle dog
- Parameters: species or system Beagle dogs
- stated_conditions: Beagle, in vivo, po, 5 mg/kg
readout_name: half-life (h)
Answer in h, number only, no unit symbol.

Enquiry: Consider the compound Cc1c(C(=O)Nc2ccc(F)c(C#N)c2)c(C)n(C)c1C(=O)C(=O)N[C@@H](C)C(F)(F)F . State its measured half-life.
Return: 105

###

Below, each entry is listed alongside its reported Remaining (%) at 60 min.
- protocol: Stability of human liver microsomes in vitro
- Format: in vitro ADME
The reply should be a number in %, with the unit left off.

Enquiry: Input Cc1c(C(=O)Nc2ccc(F)c(C#N)c2)c(C)n(C)c1C(=O)C(=O)NC1(C)COC1 [Example 6] , output reported Remaining (%) at 60 min.
Return: 79.1

Enquiry: Output measured Remaining (%) at 60 min for this item: Cc1c(C(=O)Nc2ccc(F)c(C#N)c2)c(C)n(C)c1C(=O)C(=O)NC(C)(C)CO [Example 8]
Return: 70.6

Enquiry: Fill in reported Remaining (%) at 60 min for this entry: Cc1c(C(=O)Nc2ccc(F)c(C#N)c2)c(C)n(C)c1C(=O)C(=O)NC1(C)CS(=O)(=O)C1 [Example 45]
Return: 73

Enquiry: # return recorded Remaining (%) at 60 min for entry Cc1c(C(=O)Nc2ccc(F)c(C#N)c2)c(Cl)n(C)c1C(=O)C(=O)N[C@@H](C)C(F)(F)F [Example 29]
Return: 99.6

Enquiry: Determine from records and report Remaining (%) at 60 min for Cc1c(C(=O)Nc2ccc(F)c(C#N)c2)c(C)n(C)c1C(=O)C(=O)N[C@@H](C)C(F)(F)F [Example 12]
Return: 78.8

###

- protocol: In vivo pharmacokinetic (PK) study in Beagle dog
- Set-up: species or system Beagle dogs
- stated_conditions: plasma, Beagle dogs, PO 5 mg/kg
readout_name: AUC(0-inf) (µg·h/mL)
Record the value in µg·h/mL, omitting the unit from your answer.

Enquiry: Specify measured AUC(0-inf) for Cc1c(C(=O)Nc2ccc(F)c(C#N)c2)c(C)n(C)c1C(=O)C(=O)N[C@@H](C)C(F)(F)F [Example 12] .
Return: 162

###

- protocol: In vivo pharmacokinetics (PK) study in rats
- Parameters: species or system SD rats
- stated_conditions: rat, plasma; SD rats, PO 20 mg/kg; read-out: AUC(0-48 h)
readout_name: AUC(0-t) (ng·h/mL)
Number only, in ng·h/mL; omit the unit.

Enquiry: Determine its reported AUC(0-t): Cc1c(C(=O)Nc2ccc(F)c(C#N)c2)c(C)n(C)c1C(=O)C(=O)N[C@@H](C)C(F)(F)F
Return: 62000

###

- protocol: In vivo pharmacokinetics (PK) study in mice
- stated_conditions: mouse, liver/blood; ICR mice, po 30 mg/kg, AUC(0-6 h); read-out: Liver to blood ratio
- Procedure: ICR mice, weighing 18-20 g, were randomly divided into groups of three mice each after 3 to 5 days' acclimatization, and a series of the compounds were administered intragastrically to each group at a dose of 30 mg/kg. The test animals (ICR mice) were fasted for 12 hours before the administration and fed 4 hours after the administration. They were free to access water before and after the experiment. After the intragastric administration, about 0.1 mL of blood was collected from the orbits. […]
readout_name: Kp
No unit in the answer, only the number.

Enquiry: Using the record for Cc1c(C(=O)Nc2ccc(F)c(C#N)c2)c(C)n(C)c1C(=O)C(=O)NC(C)(C)C [Example 13] , state its measured Kp.
Return: 3.32

These data points were gathered from patent US12116356B2.
